Reference source for all entries: ChEMBL document CHEMBL4513146

System: Candida albicans
condition.details: Concentration 32 ug.mL-1; ASSAY_TEST Inhibition of Fungal Growth; detection method Absorption (OD530)
Description: Antifungal activity against Candida albicans ATCC 90028 (CO-ADD:FG_001); MIC in YNB media using NBS plates, by OD630
Potency and affinity values are given separately.
# Inhibition listing for each entry below
Just the number in %, nothing appended.

Here's what some known entries look like.
{"compound": "Cc1cc(C)cc(N(Cc2ccc(Cl)cc2)S(=O)(=O)c2cccn3c(C)nnc23)c1", "measurement.target": "Candida albicans", "experimental.endpoint": "Inhibition", "numeric.result": 0.27}
{"compound": "Cc1ccc(-c2ccc3nn(CC(=O)Nc4ccc(Cl)cc4F)c(=O)n3n2)cc1", "measurement.target": "Candida albicans", "experimental.endpoint": "Inhibition", "numeric.result": -0.74}
{"compound": "COc1cccc(-n2ccn3c(SC(C)C(=O)c4ccc(C)c(C)c4)nnc3c2=O)c1 (stereo not given)", "measurement.target": "Candida albicans", "experimental.endpoint": "Inhibition", "numeric.result": 2.99}
{"compound": "CCCCOc1ccc(-c2cc3c4nnc(SCC(=O)Nc5cc(C)ccc5OC)n4ccn3n2)cc1", "measurement.target": "Candida albicans", "experimental.endpoint": "Inhibition", "numeric.result": 45.46}
{"compound": "O=C(Cn1nc2ccc(-c3ccccc3)nn2c1=O)NC1CCCCC1", "measurement.target": "Candida albicans", "experimental.endpoint": "Inhibition", "numeric.result": 0.48}

Could you now look at the following compound, please?
Please fill in: Inhibition reported for `Cc1ccc(NC(=O)Cn2nc3c(N4CCOCC4)nccn3c2=O)cc1F` = 3.27
